biological target: T1, Human VEGFA165 (human, UniProt P15692-4 27-191); experiment: ELISA, VEGFA coated 0.3 µg/mL, anti-His detection
T1 construct: treated as the same molecule; also called antigen VEGFA
T1 sequence (P15692 other isoform, or with tags, fused parts or gaps limits assumed): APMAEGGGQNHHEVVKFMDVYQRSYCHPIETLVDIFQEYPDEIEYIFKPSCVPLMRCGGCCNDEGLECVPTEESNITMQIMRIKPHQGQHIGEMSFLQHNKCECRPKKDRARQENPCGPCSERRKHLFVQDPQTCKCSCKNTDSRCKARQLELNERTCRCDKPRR
Measurement Type: EC50 (nM)
Write the value in nM as a bare number.

V30-3H-2m (VHH, Humanized V30) VHH: EVQLVESGGGLVQPGGSLRLSCAASGRTFSSYTMGWFRQAPGKGREFVVAISKGGYKYDAVSLEARFTISRDNSKNTVYLQMNSLRPEDTAVYYCAATRAYGSSRLRLAKTYEYWGQGTLVTVSS : 1.38
V40-3H-4m (VHH, Humanized V40) VHH: EVQLVESGGGLVQPGGSLRLSCAASGRTFSSYTMGWFRQAPGKEREFVVAISKGGYKYNAVSLEARFTISRDNAKNTVYLQMNSLRPEDTAVYYCASTRAYGSSRLRLAKTYEYWGQGTLVTVSS : 2.05

Give the reported EC50 for this binder. V40-4H-2m (VHH, Humanized V40) VHH: EVQLVESGGGLVQPGGSLRLSCAASGRTFTSYTMGWFRQAPGKEREFVVAISKGGYKYNAVSLEARFTISRDNSKNTVYLQMNSLRPEDTAVYYCAATRAYGSSRLRLAKTYEYWGQGTLVTVSS
2.82

// Input: V40 (VHH, Purified with C-terminal GGGGS-6×His) VHH: QLQLVESGGGSVQPGGSLRLSCEVSGRTFTSYTMGWFRQAPGKEREFVVAISKGGYKYNAVSLEARFTISKDNTKNTVYLQMNSLKPEDTAVYYCAGTRAYGSSRLRLAKTYEYWGQGTQVTVSS . Output its EC50 only.
2.03

Entry V15-4m (VHH, Humanized V15) VHH: EVQLVESGGGLVQPGGSLRLSCAASGRTFASYTMGWFRQAPGKEREFVVAISKGGYKYDSVSLEARFTISRDNAKNTVYLQMNSLRPEDTAVYYCAGTRAYGSSRLRLAETYEYWGQGTLVTVSS needs its EC50 filled in; supply it.
1.42
